Ref: patent US4517179A

- Assay Protocol: Water solubility
- Format: physicochemical
- Cond: water, 25° C.
Quantity Measured: solubility

// solubility lookup, molecule = Cc1ccccc1N1C(=O)c2cc(S(N)(=O)=O)c(Cl)cc2NC1C (stereo not shown) [metolazone] , result: ~60 µg/mL
